Origin of the recorded values: patent US9758485B2

# Run description: logP determination by HPLC on a reversed-phase column (C18), EEC Directive 79/831 Annex V.A8
# Type: physicochemical
# Settings: reversed-phase HPLC column (C18), HPLC-MS method a), Table I-T3; read-out: logP^a)
Observed property: chromatographic logP
Form: value (number only, do not type unit).

Answered cases to consult:
Consider the molecule shown here: O=C(NC1CC1)c1cc(-c2cnn(-c3c(F)cc(C(F)(F)F)cc3F)c2)ccc1Cl What is its recorded chromatographic logP?
3.2

Form field: reported chromatographic logP of COc1cc(C(F)(F)F)cc(F)c1-n1cc(-c2ccc(Cl)c(C(=O)NC3CC3)c2)cn1
3.1

---
May I ask what chromatographic logP has been recorded for Cc1cc(C(F)(C(F)(F)F)C(F)(F)F)cc(C)c1-n1cc(-c2ccc(Cl)c(C(=O)NC3CC3)c2)cn1 ?
4.4
